# Assayed System: T1, K. pneumoniae LptAm (K. pneumoniae (ATCC 13883))
# T1 chain: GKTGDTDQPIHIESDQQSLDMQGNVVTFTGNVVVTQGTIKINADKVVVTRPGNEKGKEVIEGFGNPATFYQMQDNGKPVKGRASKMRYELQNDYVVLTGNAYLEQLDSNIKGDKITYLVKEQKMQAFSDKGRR
# Assay Name: FP
Bridges are numbered along the chain shown (N, C = ends). Where no end group is shown, it is not given here.
Reported Endpoint: IC50 (nM)
Entry rule: numbers only, all in nM.

Input KKPVPIIYCNRRTGKCQRM (disulfide 9-16 (inferred)) [peptide 1] . Output IC50: 9.6
